Please go through the items and note down their cytotoxicity at 10 µM.
# run.description: Toxicity liver stage against HepG2, at 10uM
# Assay type: cell-based
# Design: test concentration 10 uM, cell line HepG2-A16-CD81EGFP
# condition.set: human, HepG2-A16-CD81EGFP cells; read-out: INHIBITION
Enter your answer as a number in %; do not include the unit.

What value of cytotoxicity at 10 µM has been recorded for this entry: "Cc1cc(F)cc2c(N3CCC(S(N)(=O)=O)CC3)c(C#N)cnc12"
0.79

What value of cytotoxicity at 10 µM has been recorded for this entry: "CCc1nc(CCNc2ncccn2)sc1C"
14.4

What value of cytotoxicity at 10 µM has been recorded for this entry: "Cc1noc(C)c1CNC(=O)N1CCN(Cc2cscn2)CC1"
-6.31

What value of cytotoxicity at 10 µM has been recorded for this entry: COc1ccc(C(=O)NCC(c2cccn2C)N2CCCC2)c(OC)c1 (configuration not stated)
1.31

What value of cytotoxicity at 10 µM has been recorded for this entry: Cc1cc(C)n(CC2CCCN2C(=O)c2ccc3c(c2)OCO3)n1 (configuration not stated)
-9.31

What value of cytotoxicity at 10 µM has been recorded for this entry: "CN(Cc1ccc(Cl)s1)C(=O)NCc1nnc2n1CCC2"
-5.36

What value of cytotoxicity at 10 µM has been recorded for this entry: "COc1cccc(C2=CCN(CCN3CCCC3=O)CC2)c1"
-10.6

What value of cytotoxicity at 10 µM has been recorded for this entry: CCN(CC1CCOC1)C(=O)c1cn2ccc(C)cc2n1 (configuration not stated)
1

What value of cytotoxicity at 10 µM has been recorded for this entry: "CCCc1cc(NCCn2cccn2)n2ncnc2n1"
5.28

What value of cytotoxicity at 10 µM has been recorded for this entry: "c1cncc(CN2CCC(c3n[nH]c(C4CC4)n3)CC2)c1"
4.99

What value of cytotoxicity at 10 µM has been recorded for this entry: Cc1cc(C)n(C2CCN(c3ncnc4c3CCC4)C2)n1 (configuration not stated)
23.6

What value of cytotoxicity at 10 µM has been recorded for this entry: "CNS(=O)(=O)c1cccc(CNC(=O)CCc2ccsc2)c1"
13.5

What value of cytotoxicity at 10 µM has been recorded for this entry: "Cc1nc(CSCCC(=O)NCC(=O)NC(C)C)cs1"
-2.03

What value of cytotoxicity at 10 µM has been recorded for this entry: Cc1ccccc1SCC(=O)NC1CCC(O)CC1 (configuration not stated)
9.58

What value of cytotoxicity at 10 µM has been recorded for this entry: "CN(C)C(=O)NC[C@@H]1OC[C@H]2CN(Cc3cccc(F)c3)CC[C@H]21"
4.93

What value of cytotoxicity at 10 µM has been recorded for this entry: "CCCN(CCC)Cc1nnsc1Cl"
10.3

What value of cytotoxicity at 10 µM has been recorded for this entry: "O=C(NCc1cn2c(n1)CN(Cc1ccncc1)CC2)C1CCC1"
6.76

What value of cytotoxicity at 10 µM has been recorded for this entry: "COc1cccc(CNC(C)C)c1OCc1ccc(C)cc1"
0.438

What value of cytotoxicity at 10 µM has been recorded for this entry: "COc1ccc(CC(=O)N2CC[C@@H]3[C@H](CC2)N(C)CCS3(=O)=O)cc1"
-104

What value of cytotoxicity at 10 µM has been recorded for this entry: "COCCN(C/C=C/c1ccccc1)Cc1[nH]cnc1C"
10.3

What value of cytotoxicity at 10 µM has been recorded for this entry: "Cc1cccn2cc(CNCc3cccc4c3OCCCO4)nc12"
15.5

What value of cytotoxicity at 10 µM has been recorded for this entry: "Cc1cc(CNC(=O)CN2CCN(C(=O)OC(C)(C)C)CC2)ccc1F"
-11.2

What value of cytotoxicity at 10 µM has been recorded for this entry: Cn1ncc2c(N3CCCC(C)(O)C3)nc(-c3cccnc3)nc21 (configuration not stated)
9.98

What value of cytotoxicity at 10 µM has been recorded for this entry: CCc1c(C)nn2c(O)cc(C3CCN(C(=O)c4ccccn4)C3)nc12 (configuration not stated)
6.7

What value of cytotoxicity at 10 µM has been recorded for this entry: "COc1ncnc2c1CCN(C(=O)NCc1cccnc1)CC2"
-133

What value of cytotoxicity at 10 µM has been recorded for this entry: "CCCS(=O)(=O)N1C[C@@H]2COC[C@]2(CN2CCOCC2)C1"
1.86

What value of cytotoxicity at 10 µM has been recorded for this entry: CCC(C)C(=O)NCc1c(C)nn(C)c1N1CCCN(C)CC1 (configuration not stated)
4.24

What value of cytotoxicity at 10 µM has been recorded for this entry: CC1CCN(C(=O)c2ccnc(-n3cncn3)c2)c2ccccc21 (configuration not stated)
13

What value of cytotoxicity at 10 µM has been recorded for this entry: "O=C1CC2(CCCC2)CC(=O)N1Cc1ncccn1"
1.27

What value of cytotoxicity at 10 µM has been recorded for this entry: Cc1ccc(C(CNCc2cccc3c2OCO3)N2CCOCC2)o1 (configuration not stated)
-38.9

What value of cytotoxicity at 10 µM has been recorded for this entry: NC(=O)C(NC(=O)COC1CCCCC1)c1ccccc1 (configuration not stated)
-4.65

What value of cytotoxicity at 10 µM has been recorded for this entry: "Cc1cccc(N2CCC3(CCN(Cc4ccccn4)CC3)CC2)n1"
4.17
